# Tested on: GLXMAW (Soybean, Williams)
# MEASUREMENT_DESCRIPTION: Postemergence herbicidal evaluation
# Type: in vivo, Glycine max, (L.) Merr. cv Williams
# EXPERIMENTAL_SETUP: postemergence, rate 0.0313 kg/ha
Provide the reported GLXMAW herbicidal rating of each item.

A selection of reference data follows.
• CCOC(=O)/C=C1/S/C(=N/c2cc(-n3c(=O)cc(C(F)(F)F)n(C)c3=O)c(F)cc2Cl)N(CC(=O)OCC)C1=O [Compound 14] = 8.0
• C=CCN1C(=O)C(CC(=O)NS(C)(=O)=O)SC1=Nc1cc(-n2c(=O)cc(C(F)(F)F)n(C)c2=O)c(F)cc1Cl (centres unmarked) [Compound 96] = 4.5
• CCOC(=O)CN1C(=O)CN(C)C1=Nc1cc(-n2c(=O)cc(C(F)(F)F)n(C)c2=O)c(F)cc1Cl [Compound 25] = 7.5
• CC(C)OC(=O)CC1SC(=Nc2cc(-n3c(=O)cc(C(F)(F)F)n(C)c3=O)c(F)cc2Cl)N(C)C1=O (centres unmarked) [Compound 89] = 9.0

Now for another entry.
The reported value for C=CCN1C(=O)C(CC(=O)NC)SC1=Nc1cc(-n2c(=O)cc(C(F)(F)F)n(C)c2=O)c(F)cc1Cl (centres unmarked) [Compound 84] in terms of GLXMAW herbicidal rating is 4.5
